Test system: purple nutsedge (Cyperus rotundus)
Assay: Test B pre-/postemergence
Type: in vivo
Details: Rate 62 g/ha, Postemergence
assay.readout: Plant response rating, Nutsedge
I'd appreciate a reply containing only the number, no unit.

Would you please look over these solved cases?
>  <chemical.string>
Cc1cnc(-c2ccc(Cl)cc2)nc1Cn1ccc(C(F)(F)F)n1

>  <Plant response rating, Nutsedge>
2

$$$$
>  <chemical.string>
Cc1cnc(-c2ccc(Cl)cc2F)nc1Cc1cccc(C(F)(F)F)c1

>  <Plant response rating, Nutsedge>
0

$$$$
>  <chemical.string>
Cc1cnc(-c2ccc(C(F)(F)F)cc2)nc1Cn1ccc(C(F)(F)F)n1

>  <Plant response rating, Nutsedge>
0

$$$$
>  <chemical.string>
Cc1cnc(-c2cccc(C(F)(F)F)c2)nc1Cc1cccc(C(F)(F)F)c1

>  <Plant response rating, Nutsedge>
0

$$$$

query: Can you look up the measured Plant response rating, Nutsedge of Cc1cnc(-c2ccc(OC(F)(F)F)cc2)nc1Cc1cccc(C(F)(F)F)c1 for me?
result: 0

query: For the compound Cc1cnc(-c2ccc(C(F)(F)F)cc2)nc1Cn1cnc(C(F)(F)F)n1 , what Plant response rating, Nutsedge is on record?
result: 1

query: What Plant response rating, Nutsedge value was documented for this compound, Cc1cnc(-n2cnc(C(F)(F)F)n2)nc1Cc1cccc(C(F)(F)F)c1 ?
result: 0
